test system: human SMAD7 mRNA; assay: Dose-dependent inhibition of human SMAD7 mRNA expression in Hep3B cells (Example 3, Study 1 and 2); type: cell-based; conditions: 740 nM, electroporation, approximately 16 hours, Study 2, relative to untreated control cells
Strand notation (5' to 3'): a small letter for the sugar, then the base; units joined by * are phosphorothioate-linked, units joined directly phosphodiester-linked; [ ] holds rarer units or linkages, { } end groups; capitals alone tell only the bases. k = constrained ethyl (cEt); [5mC] = 5-methylcytosine; d = 2'-deoxy (DNA)
// map % inhibition of SMAD7 mRNA expression to label using bottom range: < 10%; center range: ≥ 10% and < 30%; top range: ≥ 30%

// known answers, use as guide
1. 799159 (antisense kG*kT*kG*dT*dA*dT*dG*dA*dG*dT*dT*dG*dT*kA*kG*kA) [compound 799159] = top range
2. 799467 (antisense kG*k[5mC]*kA*dG*dA*d[5mC]*dA*dG*dA*dA*dG*d[5mC]*dT*k[5mC]*kT*kA) [compound 799467] = bottom range
3. 799486 (antisense k[5mC]*kA*kT*dA*dA*dT*dG*dA*d[5mC]*dT*dT*dA*dT*k[5mC]*k[5mC]*kA) [compound 799486] = center range
4. 799734 (antisense kT*k[5mC]*k[5mC]*d[5mC]*dA*dG*dG*dT*dG*dA*dA*d[5mC]*d[5mC]*k[5mC]*kA*k[5mC]) [compound 799734] = bottom range
5. 829776 (antisense kG*k[5mC]*kG*dA*dG*dT*dA*dG*dG*dA*d[5mC]*dG*dA*kG*kG*kG) [compound 829776] = center range
6. 798687 (antisense kG*kG*k[5mC]*dG*dA*dG*dG*dA*dG*dG*d[5mC]*dG*dA*kG*kG*kA) [compound 798687] = center range
7. 799565 (kA*kG*kT*dA*dA*dA*d[5mC]*dA*dA*dT*dA*d[5mC]*d[5mC]*k[5mC]*kT*k[5mC]; antisense) [compound 799565] = center range
8. 799667 (antisense kA*k[5mC]*kA*dG*dA*dT*dG*d[5mC]*d[5mC]*dA*dG*d[5mC]*dA*kA*kG*kG) [compound 799667] = bottom range

Q. Exercise: read the entry 829995 (kT*kG*kG*dA*dG*dG*d[5mC]*dA*dG*dG*dG*d[5mC]*d[5mC]*kG*k[5mC]*kG; antisense) [compound 829995] and state which class it falls under.
A. top range

Q. Exercise: read the entry 829864 (antisense kG*kG*kG*dT*dA*dA*d[5mC]*dT*dG*d[5mC]*dT*dG*d[5mC]*kG*kG*kT) [compound 829864] and state which class it falls under.
A. bottom range

Q. Exercise: read the entry 799753 (antisense k[5mC]*kG*kT*dG*dA*dG*dT*dA*dA*dA*dT*dT*d[5mC]*kT*kT*kA) [compound 799753] and state which class it falls under.
A. bottom range

Q. Exercise: read the entry 799540 (kA*kG*k[5mC]*dT*dG*dA*dA*dG*d[5mC]*d[5mC]*d[5mC]*d[5mC]*d[5mC]*k[5mC]*kA*kA; antisense) [compound 799540] and state which class it falls under.
A. top range

---

Listed below: % Inhibition values for each entry.
test system: human SMAD7 mRNA; assay: Antisense inhibition of human SMAD7 mRNA expression in Hep3B cells by 3-10-3 cEt gapmers, 10,000 nM, electroporation (Example 2); format: cell-based; settings: Hep3B cells, electroporation with 10,000 nM antisense oligonucleotide, approximately 24 hours, SMAD7 mRNA by RT-PCR (RTS5062), relative to untreated control cells
Strand notation (5' to 3'): a small letter for the sugar, then the base; units joined by * are phosphorothioate-linked, units joined directly phosphodiester-linked; [ ] holds rarer units or linkages, { } end groups; capitals alone tell only the bases. k = constrained ethyl (cEt); [5mC] = 5-methylcytosine; d = 2'-deoxy (DNA)
Write the answer as a number in %, unit excluded.

1. 830184 (antisense kA*k[5mC]*kG*dG*dT*dT*dG*d[5mC]*d[5mC]*dT*d[5mC]*dA*dT*k[5mC]*k[5mC]*kT) [compound 830184] = 48
2. 799922 (antisense kA*k[5mC]*kA*d[5mC]*dT*dA*dA*dT*dT*dA*dG*dT*dG*kA*k[5mC]*kT) [compound 799922] = 15
3. 800105 (antisense kT*k[5mC]*k[5mC]*dT*dA*dG*dA*dA*dT*dG*dA*dA*dG*kA*k[5mC]*kA) [compound 800105] = 17
4. 800106 (antisense k[5mC]*kA*kG*dA*dG*dA*dG*dG*dG*dT*dT*dA*dG*kT*kG*kG) [compound 800106] = 12
5. 799430 (antisense kA*kG*k[5mC]*d[5mC]*dA*d[5mC]*dA*dA*dG*dT*d[5mC]*dA*d[5mC]*kA*kA*k[5mC]) [compound 799430] = 29
6. 830039 (antisense kT*kT*k[5mC]*d[5mC]*dT*dA*dT*dT*dG*dG*d[5mC]*dT*dG*kA*kT*k[5mC]) [compound 830039] = 51
7. 830069 (kA*kA*kG*dG*dT*dA*dA*dG*d[5mC]*d[5mC]*dA*dG*d[5mC]*kT*k[5mC]*k[5mC]; antisense) [compound 830069] = 51
8. 830153 (antisense kG*k[5mC]*k[5mC]*dT*d[5mC]*dA*dG*d[5mC]*dA*dG*dT*dT*dA*kA*kT*kA) [compound 830153] = 21
9. 799493 (antisense kA*kT*kA*d[5mC]*dA*d[5mC]*dT*dT*dA*dA*dT*d[5mC]*dA*kA*kA*k[5mC]) [compound 799493] = 1
10. 798899 (kG*kG*k[5mC]*dA*dG*d[5mC]*dT*dG*d[5mC]*dT*dG*dA*dT*kG*kA*kA; antisense) [compound 798899] = 13

// sample 799372 (antisense k[5mC]*k[5mC]*k[5mC]*dA*dT*d[5mC]*dT*dA*dT*d[5mC]*dG*dA*dA*kT*k[5mC]*kA) [compound 799372] , its % Inhibition was 67

// sample 830076 (k[5mC]*kA*k[5mC]*dA*dT*dT*d[5mC]*dA*dG*dG*dG*dT*dG*kT*k[5mC]*kA; antisense) [compound 830076] , its % Inhibition was 43

// sample 790465 (kA*kA*kG*dG*dA*dG*d[5mC]*dG*dA*dA*d[5mC]*dA*dT*kG*kA*k[5mC]; antisense) [compound 790465] , its % Inhibition was 54
